Entry source: ChEMBL document CHEMBL1155486

In this section, each of the molecules is paired with its reported Activity.
# test system: Quinolone resistance protein NorA (Staphylococcus aureus) (UniProt P0A0J7)
# assay method text: Inhibition of NorA in Staphylococcus aureus SA-1199B assessed as reduction in ethidium bromide efflux at 50 uM by fluorimetry
# Design: scale not given: the % may be the effect or the level left

Below, 3 molecules whose answers are already recorded.
{"molecule": "CCOC(=O)c1cn(C2CC2)c2cc(N3CCC4=C(C3)C(=O)C(C)CS4)c(N)cc2c1=O (stereo not drawn)", "Activity": "63.5%"}
{"molecule": "COC(=O)[C@H]1[C@H]2C[C@@H]3c4[nH]c5cc(OC)ccc5c4CCN3C[C@H]2C[C@@H](OC(=O)c2cc(OC)c(OC)c(OC)c2)[C@@H]1OC", "Activity": "84.8%"}
{"molecule": "CCOC(=O)c1cn(C2CC2)c2cc(N3CCNCC3)c(F)cc2c1=O [CIPROFLOXACIN ETHYL ESTER]", "Activity": "20.8%"}

IN: // fetch Quinolone resistance protein NorA (Staphylococcus aureus) (UniProt P0A0J7) Activity for CCOC(=O)c1cn(C2CC2)c2c(C)c(N3CCC4=C(C3)C(O)CCS4)c(N)cc2c1=O (stereo not drawn)
OUT: 47.3%

IN: Form: Entry = CCOC(=O)c1cn(C2CC2)c2c(C)c(N3CCC4=C(C3)C(=O)CCS4)c(N)cc2c1=O | System = Quinolone resistance protein NorA (Staphylococcus aureus) (UniProt P0A0J7) | Activity = ____
OUT: 36.8%

IN: Lab request: please report Activity under test system Quinolone resistance protein NorA (Staphylococcus aureus) (UniProt P0A0J7) for CCOC(=O)c1cn(C2CC2)c2cc(N3CCC4=C(C3)C(O)CCS4)c(N)cc2c1=O (stereo not drawn)
OUT: 26.3%

IN: Please tell me: Activity of CCOC(=O)c1cn(C2CC2)c2c(C)c(N3CCC4=C(C3)C(=O)C(C)CS4)c(N)cc2c1=O (stereo not drawn) , system Quinolone resistance protein NorA (Staphylococcus aureus) (UniProt P0A0J7)?
OUT: 50.5%

IN: Recall the recorded Activity for CCOC(=O)c1cn(C2CC2)c2cc(N3CCC4=C(C3)C(=O)CCS4)c(N)cc2c1=O with Quinolone resistance protein NorA (Staphylococcus aureus) (UniProt P0A0J7) and state it.
OUT: 35.7%
